Sourced from patent US20210355105A1

Test: Pharmacokinetics assay in MiaPaca 2 tumor-bearing mice (plasma, tumor tissue, intestine)
Assay type: in vivo
Conditions: female, mouse, Tumor, oral 6 mg/kg

# Substance Smiles, Cmax / ng/mL
measured = [
    ("Nc1nc(N2CCC3(CC2)Cc2ccccc2[C@H]3N)c(F)nc1Sc1ccnc(N)c1Cl", 2390),
]

###

Experiment: Pharmacokinetics assay in mice, oral administration
Type: in vivo
Conditions: mouse; male Balb/c mice, oral 5 mg/kg, plasma
Parameter half-life: see the listing below.
Observation Type: half-life (h)

# Substance Smiles, Result Units, Observed
data = [
    ("Nc1nc(N2CCC3(CC2)Cc2ccccc2[C@H]3N)c(F)nc1Sc1ccnc(N)c1Cl", "h", 5.23),
    ("Cc1nc(N2CCC3(CC2)Cc2ncsc2[C@H]3N)c(CO)nc1Sc1ccnc(N)c1Cl", "h", 3.07),
    ("Nc1nc(N2CCC3(CC2)Cc2ncsc2[C@H]3N)c(F)nc1Sc1ccnc(N)c1Cl", "h", 4.63),
    ("Nc1nc(N2CCC3(CC2)Cc2ncccc2[C@H]3N)c(F)nc1Sc1ccnc(N)c1Cl", "h", 3.92),
]

###

Experiment: Pharmacokinetics assay in MiaPaca 2 tumor-bearing mice (plasma, tumor tissue, intestine)
Format: in vivo
Settings: female, mouse, Tumor, oral 6 mg/kg

# Compound, MRT [h]
records = [
    ("Nc1nc(N2CCC3(CC2)Cc2ccccc2[C@H]3N)c(F)nc1Sc1ccnc(N)c1Cl [Example 179]", 19.1),
]

###

Assay: Pharmacokinetics assay in mice, single intravenous injection
Assay type: in vivo
Details: mouse, iv; male Balb/c mice, i.v. 1 mg/kg, plasma

# Compound, AUC(0-inf)
records = [
    ("Nc1nc(N2CCC3(CC2)Cc2ccccc2[C@H]3N)c(F)nc1Sc1ccnc(N)c1Cl [Example 179]", "736 ng·h/mL"),
]

###

Experiment: Pharmacokinetics assay in mice, oral administration
Assay type: in vivo
Conditions: mouse; male Balb/c mice, oral 5 mg/kg, plasma
Parameter Tmax: see the listing below.
Observation Type: Tmax (min)

# Substance Smiles, Observation Type, Result Units, Observed
data = [
    ("Nc1nccc(Sc2cnc(N3CCC4(CC=C(C5CC5)[C@H]4N)CC3)cn2)c1Cl", "Tmax", "min", 60),
    ("Cc1nc(N2CCC3(CC2)Cc2ncsc2[C@H]3N)c(CO)nc1Sc1ccnc(N)c1Cl", "Tmax", "min", 30),
    ("Nc1nc(N2CCC3(CC2)Cc2ccccc2[C@H]3N)c(F)nc1Sc1ccnc(N)c1Cl", "Tmax", "min", 30),
    ("Nc1nc(N2CCC3(CC2)Cc2ncccc2[C@H]3N)c(F)nc1Sc1ccnc(N)c1Cl", "Tmax", "min", 30),
    ("Nc1nc(N2CCC3(CC2)Cc2ncsc2[C@H]3N)c(F)nc1Sc1ccnc(N)c1Cl", "Tmax", "min", 30),
]

###

Assay: Pharmacokinetics assay in mice, single intravenous injection
Type: in vivo
Settings: mouse, iv; male Balb/c mice, i.v. 1 mg/kg, plasma
Description: Balb/c mice were used as test animals. The solution was subjected to ultrasound to obtain a clear solution. The solution was filtered with a 0.22 μm water filter, and the filtrate was the formulation for intravenous administration (i.v.). The concentration was 0.2 mg/mL. After an overnight fast, male Balb/c mice were administered intravenously with the test compounds at an administration dose of 1 mg/kg and an administration volume of 5 mL/kg. […]

# Substance Smiles, Result Units, C0
records = [
    ("Nc1nc(N2CCC3(CC2)Cc2ccccc2[C@H]3N)c(F)nc1Sc1ccnc(N)c1Cl", "ng/mL", 264),
]
